Molecular target: 5-hydroxytryptamine receptor 1A (Homo sapiens)
Sequence (P08908 whole entry): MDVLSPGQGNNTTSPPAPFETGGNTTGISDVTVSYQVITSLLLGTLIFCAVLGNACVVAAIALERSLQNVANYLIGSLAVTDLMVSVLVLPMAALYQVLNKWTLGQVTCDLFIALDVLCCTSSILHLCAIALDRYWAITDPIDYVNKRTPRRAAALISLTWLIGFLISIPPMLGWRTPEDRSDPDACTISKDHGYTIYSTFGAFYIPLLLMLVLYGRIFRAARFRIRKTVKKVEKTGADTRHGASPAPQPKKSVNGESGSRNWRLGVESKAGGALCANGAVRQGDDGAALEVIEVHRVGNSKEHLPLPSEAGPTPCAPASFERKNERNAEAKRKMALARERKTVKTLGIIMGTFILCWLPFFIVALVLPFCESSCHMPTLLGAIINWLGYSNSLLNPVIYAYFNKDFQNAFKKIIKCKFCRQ
pKi: −log10 of the molar value.
Catalogue of pKi values

• CNCC(O)c1ccc(O)cc1 (stereo unspecified) [OXEDRINE] = 4.20
• COc1cc(-c2oc3cc(O)cc(O)c3c(=O)c2O[C@@H]2O[C@H](CO)[C@H](O)[C@H](O)[C@H]2O)ccc1O = < 4.00
• O=c1c2ccccc2nc2n1CCc1c-2[nH]c2ccccc12 [RUTAECARPINE] = < 4.00
• O=c1c(O[C@@H]2O[C@H](CO)[C@H](O)[C@H](O)[C@H]2O)c(-c2ccc(O)c(O)c2)oc2cc(O)cc(O)c12 [HYPEROSIDE] = < 4.00
• C[n+]1c2n(c(=O)c3ccccc31)CCc1c-2[nH]c2ccccc12 [DEHYDROEVODIAMINE] = 4.44

Read the next record carefully.
Exam item: // query pKi value for entry CC1(C)O[C@H]2CC(=O)OC[C@]23[C@H]2CC[C@@]4(C)[C@H](c5ccoc5)OC(=O)[C@H]5O[C@]54[C@]2(C)C(=O)C[C@@H]13 [LIMONIN]
Marked response: < 4.00
